Details: rat, in vivo, 10 mg/kg
RECORDED_ENDPOINT: Body weight Day 3 (g)
Lab book: enter the figure in g, no units written.

Respond only with Body weight Day 3 recorded for NC[C@H]1O[C@H](O[C@H]2[C@H](O)[C@@H](O[C@H]3O[C@H](CO)[C@@H](O)[C@H](N)[C@H]3O)[C@H](N)C[C@@H]2N)[C@H](N)C[C@@H]1O [Tobramycin, tobramycin]
264

----------
Test: Pharmacokinetics of Compound 1 after single bolus IV injection in beagle dogs (plasma)
Type: in vivo
Settings: male, beagle, dog, plasma, iv, 10 mg/kg, beagle dogs, 10 mg/kg single bolus IV; Dog 602
RECORDED_ENDPOINT: clearance (mL/min/kg)
Lab book: enter the figure in mL/min/kg, no units written.

Respond only with clearance recorded for CN[C@@H]1[C@@H](O)[C@@H](O[C@@H]2[C@@H](O)[C@H](O[C@H]3OC(CNCCO)=CC[C@H]3N)[C@@H](N)C[C@H]2NC(=O)[C@@H](O)CCN)OC[C@]1(C)O
1.88

----------
Test: First-in-human phase 1 study: plasma pharmacokinetics of Compound 1
Assay type: in vivo
Conditions: both sexes, human, plasma, intravenous, 7 mg/kg, human plasma, single dose, 24 hours, Cohort 2 (7 mg/kg), compartmental (2) analysis, ± SE
RECORDED_ENDPOINT: clearance (mL/min/kg)
Lab book: enter the figure in mL/min/kg, no units written.

Respond only with clearance recorded for CN[C@@H]1[C@@H](O)[C@@H](O[C@@H]2[C@@H](O)[C@H](O[C@H]3OC(CNCCO)=CC[C@H]3N)[C@@H](N)C[C@H]2NC(=O)[C@@H](O)CCN)OC[C@]1(C)O [Compound 1]
1.3

----------
Test: Pharmacokinetics of Compound 1 after single bolus IV injection in rats
Assay type: in vivo, Sprague Dawley rats
Conditions: Sprague Dawley, rat, plasma, iv, 10 mg/kg, 10 mg/kg single bolus IV, Rat 102
RECORDED_ENDPOINT: AUC(0-inf) (µg·h/mL)
Lab book: enter the figure in µg·h/mL, no units written.

Respond only with AUC(0-inf) recorded for CN[C@@H]1[C@@H](O)[C@@H](O[C@@H]2[C@@H](O)[C@H](O[C@H]3OC(CNCCO)=CC[C@H]3N)[C@@H](N)C[C@H]2NC(=O)[C@@H](O)CCN)OC[C@]1(C)O [Compound 1]
18.5

----------
Tested on: rat kidney
Assay: Rat nephrotoxicity model: kidney histopathology (H&E)
Type: in vivo, Sprague-Dawley rats
Conditions: rats, 14 d once-daily, 30 mg/kg
Measured Histopathology score (0 to 5 Scale): Regeneration of individual entries

Below are worked cases with known answers.
NCC[C@H](O)C(=O)N[C@@H]1C[C@H](N)[C@@H](O[C@H]2O[C@H](CN)[C@@H](O)[C@H](O)[C@H]2O)[C@H](O)[C@H]1O[C@H]1O[C@H](CO)[C@@H](O)[C@H](N)[C@H]1O : 0.2 +/− 0.4
CN[C@@H]1[C@@H](O[C@H]2O[C@H](CO)[C@@H](N)[C@H](O)[C@H]2O)OC2C[C@@H](N)[C@@H](O[C@H]3[C@H](O)[C@@H](O)[C@H](N)C[C@@H]3N)OC2[C@@H]1O (stereo partly shown) : 0.6 +/− 0.5

Respond only with Histopathology score (0 to 5 Scale): Regeneration recorded for NC[C@H]1O[C@H](O[C@H]2[C@H](O)[C@@H](O[C@H]3O[C@H](CO)[C@@H](O)[C@H](N)[C@H]3O)[C@H](N)C[C@@H]2N)[C@H](N)C[C@@H]1O
2.2 +/− 0.8

Respond only with Histopathology score (0 to 5 Scale): Regeneration recorded for NC[C@@H]1O[C@H](O[C@H]2[C@@H](O)[C@H](O[C@@H]3[C@@H](O)[C@H](N)C[C@H](N)[C@H]3O[C@H]3O[C@H](CO)[C@@H](O)[C@H](O)[C@H]3N)O[C@@H]2CO)[C@H](N)[C@@H](O)[C@@H]1O
1.4 +/− 0.5

----------
Assay: Pharmacokinetics of Compound 1 after single bolus IV injection in beagle dogs (plasma)
Assay type: in vivo
Conditions: male, beagle, dog, plasma, iv, 10 mg/kg, beagle dogs, 10 mg/kg single bolus IV; mean; read-out: volume of distribution at steady state
RECORDED_ENDPOINT: Vd (L/kg)
Lab book: enter the figure in L/kg, no units written.

Respond only with Vd recorded for CN[C@@H]1[C@@H](O)[C@@H](O[C@@H]2[C@@H](O)[C@H](O[C@H]3OC(CNCCO)=CC[C@H]3N)[C@@H](N)C[C@H]2NC(=O)[C@@H](O)CCN)OC[C@]1(C)O
0.164

----------
Experiment: Pharmacokinetics of Compound 1 after single bolus IV injection in rats
Type: in vivo, Sprague Dawley rats
Settings: Sprague Dawley, rat, plasma, intravenous, 10 mg/kg, read-out: t½ (renal clearance) (converted)
RECORDED_ENDPOINT: half-life

Respond only with half-life recorded for CN[C@@H]1[C@@H](O)[C@@H](O[C@@H]2[C@@H](O)[C@H](O[C@H]3OC(CNCCO)=CC[C@H]3N)[C@@H](N)C[C@H]2NC(=O)[C@@H](O)CCN)OC[C@]1(C)O [Compound 1]
~1 h

----------
Test: GLP 14-day repeat-dose safety study in rat
Format: in vivo
Conditions: rat, in vivo
RECORDED_ENDPOINT: NOAEL at 14 days (mg/kg)
Lab book: enter the figure in mg/kg, no units written.

Respond only with NOAEL at 14 days recorded for CN[C@@H]1[C@@H](O)[C@@H](O[C@@H]2[C@@H](O)[C@H](O[C@H]3OC(CNCCO)=CC[C@H]3N)[C@@H](N)C[C@H]2NC(=O)[C@@H](O)CCN)OC[C@]1(C)O [Compound 1]
8

----------
Test: Pharmacokinetics of Compound 1 after single bolus IV injection in rats
Type: in vivo, Sprague Dawley rats
Conditions: Sprague Dawley, rat, plasma, iv, 10 mg/kg, 10 mg/kg single bolus IV, Rat 102, read-out: MRT0-∞
RECORDED_ENDPOINT: MRT inf (min)
Lab book: enter the figure in min, no units written.

Respond only with MRT inf recorded for CN[C@@H]1[C@@H](O)[C@@H](O[C@@H]2[C@@H](O)[C@H](O[C@H]3OC(CNCCO)=CC[C@H]3N)[C@@H](N)C[C@H]2NC(=O)[C@@H](O)CCN)OC[C@]1(C)O
48

----------
Conditions: rat, in vivo, 30 mg/kg
RECORDED_ENDPOINT: Body weight Day 1 (g)
Lab book: enter the figure in g, no units written.

Respond only with Body weight Day 1 recorded for NC[C@H]1O[C@H](O[C@H]2[C@H](O)[C@@H](O[C@H]3O[C@H](CO)[C@@H](O)[C@H](N)[C@H]3O)[C@H](N)C[C@@H]2N)[C@H](N)C[C@@H]1O [Tobramycin, tobramycin]
250

----------
Conditions: rat, in vivo, 100 mg/kg
RECORDED_ENDPOINT: Body weight Day 13 (g)
Lab book: enter the figure in g, no units written.

Respond only with Body weight Day 13 recorded for NC[C@H]1O[C@H](O[C@H]2[C@H](O)[C@@H](O[C@H]3O[C@H](CO)[C@@H](O)[C@H](N)[C@H]3O)[C@H](N)C[C@@H]2N)[C@H](N)C[C@@H]1O
296

----------
Experiment: First-in-human phase 1 study: plasma pharmacokinetics of Compound 1
Assay type: in vivo
Details: both sexes, human, plasma, intravenous, 15 mg/kg, human plasma, single dose, 24 hours, Cohort 4 (15 mg/kg), compartmental (2) analysis, ± SE
RECORDED_ENDPOINT: AUC(0-inf) (µg·h/mL)
Lab book: enter the figure in µg·h/mL, no units written.

Respond only with AUC(0-inf) recorded for CN[C@@H]1[C@@H](O)[C@@H](O[C@@H]2[C@@H](O)[C@H](O[C@H]3OC(CNCCO)=CC[C@H]3N)[C@@H](N)C[C@H]2NC(=O)[C@@H](O)CCN)OC[C@]1(C)O
250

----------
Test system: rat kidney
Experiment: Rat nephrotoxicity model: kidney histopathology (H&E)
Type: in vivo, Sprague-Dawley rats
Details: rats, 14 d once-daily, 100 mg/kg
Procedure: This rat nephrotoxicity study design used 14 days of once-daily dosing of aminoglycosides in adult Sprague-Dawley rats. Rats were allowed full access to food and water, and aminoglycosides were dosed subcutaneously at 1 mL/kg dosing volume, formulated in water. Nephrotoxicity was assessed by monitoring changes in serum markers of glomerular filtration rate (GFR), namely blood urea nitrogen (BUN) and serum creatinine. […]
RECORDED_ENDPOINT: Histopathology score (0 to 5 Scale): Inflammation

Below are worked cases with known answers.
NC[C@@H]1O[C@H](O[C@H]2[C@@H](O)[C@H](O[C@@H]3[C@@H](O)[C@H](N)C[C@H](N)[C@H]3O[C@H]3O[C@H](CO)[C@@H](O)[C@H](O)[C@H]3N)O[C@@H]2CO)[C@H](N)[C@@H](O)[C@@H]1O : 3 +/− 0
NC[C@H]1O[C@H](O[C@H]2[C@H](O)[C@@H](O[C@H]3O[C@H](CO)[C@@H](O)[C@H](N)[C@H]3O)[C@H](N)C[C@@H]2N)[C@H](N)C[C@@H]1O : 2.4 +/− 0.9
CN[C@@H]1[C@@H](O[C@H]2O[C@H](CO)[C@@H](N)[C@H](O)[C@H]2O)OC2C[C@@H](N)[C@@H](O[C@H]3[C@H](O)[C@@H](O)[C@H](N)C[C@@H]3N)OC2[C@@H]1O (stereo partly shown) : 2.4 +/− 0.5

Would you kindly look at the next entry?
Give Histopathology score (0 to 5 Scale): Inflammation for this entry on rat kidney: NCC[C@H](O)C(=O)N[C@@H]1C[C@H](N)[C@@H](O[C@H]2O[C@H](CN)[C@@H](O)[C@H](O)[C@H]2O)[C@H](O)[C@H]1O[C@H]1O[C@H](CO)[C@@H](O)[C@H](N)[C@H]1O
0.6 +/− 0.5
